assayed.target: Recombinant human cathepsin A (Homo sapiens, UniProt P10619)
Construct: Recombinant human cathepsin A (residues 29-480, with a C-terminal 10-His tag); 10-His (C); purchased R&D Systems 1049-SE
Sequence (P10619 29-312 limits assumed): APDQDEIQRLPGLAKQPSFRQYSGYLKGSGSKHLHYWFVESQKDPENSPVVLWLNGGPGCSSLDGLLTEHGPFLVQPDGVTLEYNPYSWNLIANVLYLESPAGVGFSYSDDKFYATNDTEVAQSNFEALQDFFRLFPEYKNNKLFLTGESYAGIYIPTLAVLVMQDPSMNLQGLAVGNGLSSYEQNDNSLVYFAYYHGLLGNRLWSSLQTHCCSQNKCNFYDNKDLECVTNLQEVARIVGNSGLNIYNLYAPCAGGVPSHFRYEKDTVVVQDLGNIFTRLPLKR
Sequence (P10619 327-480 limits assumed): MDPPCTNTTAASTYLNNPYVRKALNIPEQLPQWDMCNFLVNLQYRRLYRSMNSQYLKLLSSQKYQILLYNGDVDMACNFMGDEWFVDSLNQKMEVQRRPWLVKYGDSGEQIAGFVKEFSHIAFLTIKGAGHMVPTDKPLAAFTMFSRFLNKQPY
assay.comment: Cathepsin A inhibitory activity
Format: biochemical
details: recombinant human cathepsin A; read-out: Activity (2): Cathepsin A inhibitory activity, IC50 class
pIC50: −log10 of the molar value.
reported.metric: pIC50

{"columns": ["molecule", "reported.metric", "result"],
 "data": [
  ["Cc1ccc(F)cc1C(CC(=O)O)NC(=O)c1cc(O)n(-c2ccccc2Cl)n1 (centres unmarked)", "pIC50", "6.00 to 7.00"]
]}

Query :: Provide pIC50 value for the following molecule: COc1ccc(F)cc1C(CC(=O)O)NC(=O)c1cc(O)n(-c2ccccc2Cl)n1 (centres unmarked)
Result :: 6.00 to 7.00

Query :: Return reported pIC50. Input molecule: "Cc1ccc([C@H](CC(=O)O)NC(=O)c2cc(O)n(-c3cccc(F)c3)n2)cc1"
Result :: 6.00 to 7.00

Query :: Query pIC50 for O=C(O)CC(NC(=O)c1cc(O)n(-c2ccc(F)cc2F)n1)c1cc(F)ccc1F (centres unmarked)
Result :: 6.00 to 7.00
